Where do the numbers come from? From ChEMBL document CHEMBL1128895.

biological target: D(1A) dopamine receptor (Rattus norvegicus, UniProt P18901); test: Compound was evaluated for its binding affinity to Dopamine receptor D1 in rat striatum using [3H]- SCH-23390 radioligand assay
Sequence (P18901 whole entry): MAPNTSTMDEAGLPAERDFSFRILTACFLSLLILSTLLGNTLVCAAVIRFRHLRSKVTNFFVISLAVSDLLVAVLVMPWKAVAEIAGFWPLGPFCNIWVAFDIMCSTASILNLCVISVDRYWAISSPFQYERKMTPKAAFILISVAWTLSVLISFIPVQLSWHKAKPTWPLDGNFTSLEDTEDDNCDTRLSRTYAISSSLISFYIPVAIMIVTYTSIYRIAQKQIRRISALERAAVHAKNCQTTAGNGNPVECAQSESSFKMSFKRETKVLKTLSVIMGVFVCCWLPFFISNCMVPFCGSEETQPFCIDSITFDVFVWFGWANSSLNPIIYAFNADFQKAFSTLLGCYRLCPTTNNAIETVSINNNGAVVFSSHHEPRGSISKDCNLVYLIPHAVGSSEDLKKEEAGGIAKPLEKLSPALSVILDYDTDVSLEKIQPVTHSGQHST
EXPERIMENTAL_ENDPOINT: pKi
Give bare numbers, as −log10 of the molar value.

The compound listed as COc1cccc2c1CCC[C@H]2CN(C)CCc1ccc2ccoc2c1 has a reported pKi of 6.13

###

molecular target: Beta-1 adrenergic receptor (Rattus norvegicus)
Sequence (P18090 whole entry): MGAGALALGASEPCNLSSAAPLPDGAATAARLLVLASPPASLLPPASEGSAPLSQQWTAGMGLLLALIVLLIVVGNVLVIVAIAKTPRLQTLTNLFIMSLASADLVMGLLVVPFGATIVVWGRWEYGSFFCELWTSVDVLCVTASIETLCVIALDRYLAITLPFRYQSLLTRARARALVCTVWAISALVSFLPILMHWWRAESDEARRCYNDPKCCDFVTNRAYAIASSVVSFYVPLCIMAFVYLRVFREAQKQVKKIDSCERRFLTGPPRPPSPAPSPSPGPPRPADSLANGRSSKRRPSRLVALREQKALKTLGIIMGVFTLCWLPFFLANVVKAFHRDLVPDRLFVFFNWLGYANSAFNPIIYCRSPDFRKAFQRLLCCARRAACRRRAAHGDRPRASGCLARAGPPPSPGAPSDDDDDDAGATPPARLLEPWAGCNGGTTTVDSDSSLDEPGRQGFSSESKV
EXPERIMENTAL_ENDPOINT: Ki (nM)
Answers are plain numbers, in nM.

The compound listed as COc1cccc2c1CCC[C@H]2CN(C)CCc1ccc2ccoc2c1 has a reported Ki of 836
